Hello, the source for this data is patent US5843904A, in case you need it.

Biological target: ICE (Homo sapiens, UniProt P29466)
Construct: The active enzyme exists as a tetramer of two p20 and two p10 subunits
Sequence (P29466 120-297 limits assumed): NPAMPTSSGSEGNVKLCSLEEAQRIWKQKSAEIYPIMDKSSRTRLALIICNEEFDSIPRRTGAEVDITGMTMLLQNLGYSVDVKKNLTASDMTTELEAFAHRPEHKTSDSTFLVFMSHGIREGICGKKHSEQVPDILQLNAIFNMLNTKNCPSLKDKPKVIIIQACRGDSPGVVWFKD
Sequence (P29466 317-404 limits assumed): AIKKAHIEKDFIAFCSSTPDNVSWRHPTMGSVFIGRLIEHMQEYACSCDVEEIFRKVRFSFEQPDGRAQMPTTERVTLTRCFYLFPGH
Assay: Inhibition of ICE: enzyme assay with UV-visible substrate (Succinyl-Tyr-Val-Ala-Asp-pNitroanilide)
Assay type: biochemical
Conditions: UV-visible substrate assay of Example 1; pH 8.1, 37° C., 80 μM substrate
Non-standard residues stand in square brackets, D forms with d. Residues, ends and D or L forms follow the SMILES beside them. 4Abz = Nc1ccc(C(=O)O)cc1; Nphe = O=C(O)CNCc1ccccc1
PROPERTY NAME: pKi
Expect pKi as a plain number equal to -log10 of the molar concentration.

Recorded results for 2 compounds are shown here.
CC(=O)Nc1ccc(C(=O)N[C@H](C(=O)N(CC(=O)N[C@H](C=O)CC(=O)O)Cc2ccccc2)C(C)C)cc1 [Compound 751] (Ac-[4Abz]V[Nphe]D-aldehyde): 7.15
COc1cc(C(=O)C(=O)N[C@H](C(=O)N(CC(=O)N[C@H](C=O)CC(=O)O)Cc2ccccc2)C(C)C)cc(OC)c1OC: 7.21

Query block: Item under review: CC(C)[C@H](NC(=O)c1ccc(Cl)cc1)C(=O)N(CC(=O)N[C@H](C=O)CC(=O)O)Cc1ccccc1 . Reported pKi?
Result block: 7.05
